Experiment: Metabolic stability in human hepatic microsome
Assay type: in vitro ADME
Settings: microsomes, pH 7.4; human hepatic microsome, NADPH(+); read-out: CL NADPH(+)
Starred links: 1 amine or outer side, 2 acyl side, 3 side chain; linkers in the order of their positions; H or OH if unused. Positions of bridges follow the written chain, without caps; N, C: chain ends. Non-standard residues stand in square brackets, D forms with d. Residues, ends and D or L forms follow the SMILES beside them. *: point of attachment. Phe(3-(CH2)4CO) = O=C([C@H](Cc1cccc(CCCCC(=O)[*:3])c1)N[*:1])[*:2]; NMePhe(3-Cl) = CN[C@@H](Cc1cccc(Cl)c1)C(=O)O; NMeF = CN[C@@H](Cc1ccccc1)C(=O)O; NMeGABA = CN(CCCC(=O)[*:2])[*:1]; NMeL = CN[C@@H](CC(C)C)C(=O)O; NMeS = CN[C@@H](CO)C(=O)O; NMeA = CN[C@@H](C)C(=O)O; Piperidide = C1CCN(*)CC1; dNMeA = CN[C@H](C)C(=O)O; β3hA = C[C@H](N)CC(=O)O; Sar = CNCC(=O)O; tBu = CC(C)(C)*
Consider the following compounds; for each one, report its microsomal CLint at 1 uM.
One number for each entry, in µL/min/mg.

See these solved cases before continuing.
CC(C)C[C@H]1C(=O)N(C)[C@@H](CC(C)C)C(=O)N[C@@H](C)C(=O)N(C)[C@@H](CC(C)C)C(=O)N(C)[C@@H](Cc2ccccc2)C(=O)N(C)[C@@H](Cc2ccccc2)C(=O)N[C@@H]([C@@H](C)O)C(=O)N(C)[C@@H](C)C(=O)N(C)[C@@H](CC(C)C)C(=O)N[C@H](C(=O)N2CCCCC2)Cc2cccc(c2)CCCCC(=O)N1C [DP-859] ([NMeL][NMeL]A[NMeL][NMeF][NMeF]T[NMeA][NMeL][Phe(3-(CH2)4CO)]-Piperidide; lactam N-10) ... 87
CC[C@H](C)[C@@H]1NC(=O)[C@H](C)N(C)C(=O)[C@H](CC(C)C)NC(=O)[C@H]([C@@H](C)O)NC(=O)CNC(=O)[C@@H]2CCCN2C(=O)[C@H](COC(C)(C)C)NC(=O)[C@H](CC(C)C)N(C)C(=O)[C@H](Cc2ccccc2)NC(=O)CCCN(C)C(=O)C[C@@H](C(=O)N2CCCCC2)NC(=O)[C@H](Cc2ccccc2)N(C)C1=O [DP-107] ([NMeGABA]F[NMeL]S(tBu)PGTL[NMeA]I[NMeF]D-Piperidide; lactam N-12) ... 14
CC(C)C[C@@H]1NC(=O)[C@H](CC(C)C)N(C)C(=O)[C@H](C(C)C)NC(=O)[C@H](CC(C)C)N(C)C(=O)CN(C)C(=O)[C@H](CC(C)C)NC(=O)[C@H](CO)N(C)C(=O)[C@H](CC(C)C)N(C)C(=O)[C@H](CC(C)C)N(C)C(=O)C[C@H](C)NC(=O)[C@@H](CC(C)C)NC1=O [DP-642] (cyclo(L[Sar][NMeL]V[NMeL]L[dL][β3hA][NMeL][NMeL][NMeS])) ... 65
CC[C@H](C)[C@@H]1NC(=O)[C@H](Cc2ccccc2)N(C)C(=O)[C@@H]2CCCN2C(=O)[C@H]([C@@H](C)O)NC(=O)[C@H](CC(C)C)NC(=O)[C@H](C)N(C)C(=O)CCCN(C)C(=O)C[C@@H](C(=O)N2CCCCC2)NC(=O)[C@H](CC(C)C)NC(=O)[C@H](CC(C)C)N(C)C(=O)CNC(=O)[C@H](Cc2ccccc2)N(C)C1=O [DP-109] ([NMeGABA][NMeA]LTP[NMeF]I[NMeF]G[NMeL]LD-Piperidide; lactam N-12) ... 36
CC(C)C[C@H]1C(=O)N(C)[C@@H](C)C(=O)N[C@H](C(=O)N2CCCCC2)CC(=O)N(C)[C@@H](C)C(=O)N(C)[C@@H](C)C(=O)N[C@@H](C)C(=O)N(C)[C@@H](C)C(=O)N(C)[C@@H](CC(C)C)C(=O)N(C)[C@@H](Cc2ccccc2)C(=O)N[C@@H]([C@@H](C)O)C(=O)N(C)[C@@H](C)C(=O)N1C [DP-480] ([NMeA][NMeA]A[NMeA][NMeL][NMeF]T[NMeA][NMeL][NMeA]D-Piperidide; lactam N-11) ... 15
CC(C)C[C@H]1C(=O)N[C@@H]([C@@H](C)O)C(=O)N(C)[C@@H](C)C(=O)N(C)[C@@H](Cc2ccccc2)C(=O)N(C)CC(=O)N[C@@H](C)C(=O)N(C)[C@@H](Cc2ccccc2)C(=O)N(C)[C@@H](CC(C)C)C(=O)N[C@H](C(=O)N2CCCCC2)CC(=O)N(C)[C@H](C)C(=O)N(C)[C@@H](C)C(=O)N1C [DP-419] ([dNMeA][NMeA][NMeL]T[NMeA][NMeF][Sar]A[NMeF][NMeL]D-Piperidide; lactam N-11) ... 17

Hi team, please reply with microsomal CLint at 1 uM for each item in this list.
1. CC[C@H](C)[C@H](NC(=O)[C@H](CC(C)C)N(C)C(=O)[C@H](CC(C)C)N(C)C(=O)[C@H](Cc1ccccc1)N(C)C(=O)[C@@H]1CC(=O)N[C@H](C(C)C)C(=O)N(C)[C@@H](Cc2cccc(Cl)c2)C(=O)N(C)[C@@H](C)C(=O)N(C)[C@@H](CC(C)C)C(=O)N[C@@H]([C@@H](C)O)C(=O)N(C)[C@@H](CC(C)C)C(=O)N1)C(=O)N1CCCCC1 [DP-916] ([dV][NMePhe(3-Cl)][NMeA][NMeL]T[NMeL]D[NMeF][NMeL][NMeL]I-Piperidide; lactam N-7)
2. CC(C)C[C@H]1C(=O)N(C)[C@@H](CC(C)C)C(=O)N[C@H](C(=O)N(C)[C@@H](Cc2ccccc2)C(=O)N[C@@H](C)C(=O)N2CCCCC2)CC(=O)N[C@@H](C)C(=O)N(C)[C@@H](C)C(=O)N(C)[C@@H](Cc2ccccc2)C(=O)N(C)[C@@H](CC(C)C)C(=O)N[C@@H]([C@@H](C)O)C(=O)N(C)CC(=O)N[C@@H](C(C)C)C(=O)N1C [DP-188] (A[NMeA][NMeF][NMeL]T[Sar]V[NMeL][NMeL]D[NMeF]A-Piperidide; lactam N-10)

[55, 84]

Measured microsomal CLint at 1 uM of C=C1CCC(=O)N(C)[C@@H](Cc2ccccc2)C(=O)N[C@@H](CC(C)C)C(=O)N(C)[C@@H](CC(C)C)C(=O)N[C@@H]([C@@H](C)O)C(=O)N(C)CC(=O)N(C)[C@@H]([C@@H](C)CC)C(=O)N[C@@H](COC(C)(C)C)C(=O)N(C)[C@@H](Cc2ccccc2)C(=O)N(C)[C@@H](C(C)C)C(=O)N[C@H](C(=O)N2CCCCC2)Cc2ccc1cc2 [DP-850] : 119
